Molecular target: LILRA5 (human (not printed on the sheet), UniProt A6NI73)
Sequence (A6NI73 42-268 limits assumed): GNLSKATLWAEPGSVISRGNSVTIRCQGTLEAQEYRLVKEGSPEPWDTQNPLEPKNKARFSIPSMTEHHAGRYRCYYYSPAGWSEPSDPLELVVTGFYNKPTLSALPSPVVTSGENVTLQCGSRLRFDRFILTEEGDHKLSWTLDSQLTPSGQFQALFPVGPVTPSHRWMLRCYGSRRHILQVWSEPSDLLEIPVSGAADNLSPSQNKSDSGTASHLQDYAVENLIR
Assay: LILR reporter cells on coated antibody, GFP positive (%)
Observable: binding result

Using the record for h193 antibody No. 37 (h193-H7 / h193-K3) (antibody, V domains shown) VH: EVQLVESGGGLVQPGGSLRLSCAASGFSLSSSYWISWVRQAPGKGLEWIGSIDSGSVGITYYATWVKGRFTISRDNSKNTLYLQMNSLRAEDTAVYYCARHGDNWALDLWGQGTLVTVSS VL: DIQMTQSPSTLSASVGDRVTITCRASQSINSWLAWYQQKPGKAPKLLIYKASTLASGVPSRFSGSGSGTEFTLTISSLQPDDFATYYCQHGYIRGDLDNVFGGGTKVEIK , report its binding result.
no binding

Can you handle h193 antibody No. 33 (h193-H6 / h193-K3) (antibody, V domains shown) VH: EVQLVESGGGLVQPGGSLRLSCAASGFSLSSSYWISWVRQAPGKGLEWIGSIDSGSVGITYYATSAKGRFTISRDNSKNTLYLQMNSLRAEDTAVYYCARHGDNWALDLWGQGTLVTVSS VL: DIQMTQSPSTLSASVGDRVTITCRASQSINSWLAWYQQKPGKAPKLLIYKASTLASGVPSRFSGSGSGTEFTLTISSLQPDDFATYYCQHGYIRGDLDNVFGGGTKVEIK next?
no binding

Can you handle h193 antibody No. 27 (h193-H5 / h193-K1) (antibody, V domains shown) VH: EVQLVESGGGLVQPGGSLRLSCAASGFSLSSSYWISWVRQAPGKGLEWIGVIDSGSVGITYYATWAKGRFTISRDNSKNTLYLQMNSLRAEDTAVYYCARHGDNWALDLWGQGTLVTVSS VL: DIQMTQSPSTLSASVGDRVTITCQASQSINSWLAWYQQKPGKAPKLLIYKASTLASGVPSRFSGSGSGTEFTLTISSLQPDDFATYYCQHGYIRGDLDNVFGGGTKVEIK next?
no binding
